biological target: Ubiquitin carboxyl-terminal hydrolase 2 (Homo sapiens, UniProt O75604)
Sequence (O75604 whole entry): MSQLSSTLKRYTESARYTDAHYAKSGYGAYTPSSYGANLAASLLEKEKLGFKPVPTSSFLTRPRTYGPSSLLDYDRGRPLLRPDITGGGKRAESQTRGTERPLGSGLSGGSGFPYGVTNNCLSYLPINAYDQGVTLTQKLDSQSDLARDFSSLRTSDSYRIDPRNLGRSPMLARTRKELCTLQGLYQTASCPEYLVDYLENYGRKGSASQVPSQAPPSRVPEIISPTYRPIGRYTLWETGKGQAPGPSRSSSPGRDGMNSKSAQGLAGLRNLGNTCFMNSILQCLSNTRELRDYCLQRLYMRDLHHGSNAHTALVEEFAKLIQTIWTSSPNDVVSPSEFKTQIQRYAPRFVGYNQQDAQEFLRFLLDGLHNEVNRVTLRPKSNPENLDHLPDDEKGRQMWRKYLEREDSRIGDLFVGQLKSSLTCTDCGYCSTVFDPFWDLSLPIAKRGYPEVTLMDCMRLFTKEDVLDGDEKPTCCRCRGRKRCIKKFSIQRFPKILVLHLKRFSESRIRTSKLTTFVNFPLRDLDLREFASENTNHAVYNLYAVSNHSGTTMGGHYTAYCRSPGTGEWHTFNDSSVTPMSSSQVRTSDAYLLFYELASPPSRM
measure: IC50 (µM)

>  <structure_notation>
O=C1/C(=C/c2ccc([N+](=O)[O-])cc2)CS(=O)(=O)C/C1=C\c1ccc([N+](=O)[O-])cc1

>  <unit_annotation>
µM

>  <observed>
32.6

$$$$

====

Molecular target: Ubl carboxyl-terminal hydrolase 18 (Homo sapiens)
Sequence (Q9UMW8 whole entry): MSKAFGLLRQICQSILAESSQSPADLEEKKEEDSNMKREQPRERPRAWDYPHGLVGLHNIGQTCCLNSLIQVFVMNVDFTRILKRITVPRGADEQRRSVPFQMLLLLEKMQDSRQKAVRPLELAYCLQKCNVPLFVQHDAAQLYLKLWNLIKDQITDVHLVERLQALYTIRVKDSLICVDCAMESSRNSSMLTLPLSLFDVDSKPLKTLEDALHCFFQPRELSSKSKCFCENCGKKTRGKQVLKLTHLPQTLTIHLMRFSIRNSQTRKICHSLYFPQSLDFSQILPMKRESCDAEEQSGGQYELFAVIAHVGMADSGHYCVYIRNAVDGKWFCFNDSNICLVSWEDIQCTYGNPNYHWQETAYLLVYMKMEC
Assay: Inhibition of recombinant human USP18 (16 to 372 aa) expressed in Sf9 cells using ISG15-AMC as substrate preincubated for 30 mins before substrate addition measured after 60 mins by fluorescence assay
pIC50: −log10 of the molar value.
Below, each entry is listed alongside its reported pIC50.

>  <compound>
O=C1/C(=C/c2ccc([N+](=O)[O-])cc2)CS(=O)(=O)C/C1=C\c1ccc([N+](=O)[O-])cc1

>  <pIC50>
4.48

$$$$
>  <compound>
O=C1/C(=C/c2ccc([N+](=O)[O-])cc2)CC(O)C/C1=C\c1ccc([N+](=O)[O-])cc1 (configuration not stated)

>  <pIC50>
4.67

$$$$
